system: ATP; assay: switch fluorescence ratio, 500 uM ATP over buffer (Cy3 cluster intensity, sum of 5 cycles each) (fold (ratio)); higher = stronger signal-on switching upon ATP binding; sequences stand for … in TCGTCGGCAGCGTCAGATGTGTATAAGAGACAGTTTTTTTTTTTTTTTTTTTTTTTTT…TC; details: aptamer strand: ATP DNA aptamer (quencher-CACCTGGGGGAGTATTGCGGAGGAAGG + anchor), 100 nM annealed; ATP concentration: 500 uM;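 note: ATP exposure 15 min at 22 °C before imaging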
REPORTED METRIC: switch fluorescence ratio
Write the number on its own, no unit after it.

Some solved cases for reference:
| SEQUENCE | ENDPOINT VALUE |
| --- | --- |
| CCAGTGATGT | 1.04 |
| ACGTCTTTGG | 1.02 |
| TTTCCCTGTT | 1.05 |
| AAGTGGCTGT | 0.941 |

Sure, the documented switch fluorescence ratio for GCATCGGGGT is 1

Consider TTTTGACGAG . Its measured switch fluorescence ratio is 1.02

Field switch fluorescence ratio (entry TGTGAAAATT ) reads 1.01

switch fluorescence ratio reading for GAGGGATTCC : 1.06

Field switch fluorescence ratio (entry GCCCACGGGA ) reads 1.07
